- subject of test: IRAK4 (Homo sapiens)
- Construct: endogenous in cells
- Sequence (Q9NWZ3 whole entry): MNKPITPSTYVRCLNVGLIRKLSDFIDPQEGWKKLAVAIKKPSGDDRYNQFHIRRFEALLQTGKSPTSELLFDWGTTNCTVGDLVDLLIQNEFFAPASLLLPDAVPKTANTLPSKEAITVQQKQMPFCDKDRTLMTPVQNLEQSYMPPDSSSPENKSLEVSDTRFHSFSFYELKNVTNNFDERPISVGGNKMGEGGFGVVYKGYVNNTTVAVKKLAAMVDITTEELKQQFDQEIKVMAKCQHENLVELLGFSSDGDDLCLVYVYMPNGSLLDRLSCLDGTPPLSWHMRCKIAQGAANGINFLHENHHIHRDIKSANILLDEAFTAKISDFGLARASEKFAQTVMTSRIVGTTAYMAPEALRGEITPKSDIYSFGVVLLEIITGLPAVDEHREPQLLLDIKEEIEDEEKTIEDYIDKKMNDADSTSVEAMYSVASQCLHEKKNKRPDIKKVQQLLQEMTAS
- method: ALE THP1 HTRF (Advanced Lipoxidation End Product THP1 Homogeneous Time Resolved Fluorescence)
- condition context: THP1 cells
- Procedure: For Homogenous Time Resolved Fluorescence (HTRF) assays, a Cisbio HTRF kit was used, which included: Lysis Buffer #1 4×, Blocking Reagent #3 100×, 20× Antibody 1 (Anti-IRAK4 d2), 20× Antibody 2 (Anti-IRAK4 k), and Detection Buffer. 4× Lysis Buffer was stored at 4° C. […] Cells were lysed at room temperature for 45 min with shaking. […] The samples were analyzed by a plate reader (Envision, PerkinElmer) using the Desnor 384 HTRF program.
value kind: EC50 (nM)

{"columns": ["compound", "subject of test", "units label", "meas value"],
 "data": [
  ["N#Cc1cnc2c(cnn2-c2cc(NC3CCCC3)c(C(=O)N[C@H]3CC[C@H](CNC4CCN(c5ccc(C6CCC(=O)NC6=O)cc5)CC4)CC3)cn2)c1 (stereo partly drawn) [P-29]", "IRAK4 (Homo sapiens)", "nM", 98],
  ["N#Cc1cnc2c(cnn2-c2cc(NC3CCCC3)c(C(=O)NC3CCC(CN4CCC(C(=O)Nc5ccc(C6CCC(=O)NC6=O)cc5)C(F)(F)C4)CC3)cn2)c1 (stereo not drawn) [P-46]", "IRAK4 (Homo sapiens)", "nM", 74]
]}

(I) N#Cc1cnc2c(cnn2-c2cc(NC3(C#N)CC3)c(C(=O)N[C@H]3CC[C@H](CCN4CCN(c5ccc(C6CCC(=O)NC6=O)cc5)CC4)CC3)cn2)c1 (stereo partly drawn) [P-122]
(II) C[C@@H]1CN(c2ccc(C3CCC(=O)NC3=O)cc2)C[C@H](C)N1CCC1CCC(NC(=O)c2cnc(-n3ncc4cc(C#N)cnc43)cc2NC2CCCC2)CC1 (stereo partly drawn) [P-57]
(III) N#Cc1cnc2c(cnn2-c2cc(NC3CCCC3)c(-c3cn([C@H]4CC[C@H](CN5CCC(C(=O)Nc6ccc(N7CCC(=O)NC7=O)cc6)CC5)CC4)nn3)cn2)c1 [P-34]
(IV) C[C@H](C#N)Nc1cc(-n2ncc3cc(C#N)c(N)nc32)ncc1C(=O)N[C@H]1CC[C@H](CCN2CCN(c3ccc(C4CCC(=O)NC4=O)cc3)[C@H](C)C2)CC1 (stereo partly drawn) [P-142]
Please list these in order of increasing EC50. Thank you! Returns: the labels listed in the requested order. IV, I, II, III

====

- subject of test: IRAK4 (Homo sapiens)
- Construct: endogenous in cells; host or cells: THP-1 cells
- method: LVL THP1 HTRF (THP1 Homogeneous Time Resolved Fluorescence)
- Format: cell-based
- condition context: THP1 cells, 18 h incubation with compound
value kind: LVL THP1 HTRF YMIN (%)

{"columns": ["molecule", "units label", "meas value"],
 "data": [
  ["C[C@H](C#N)Nc1cc(-n2ncc3cc(C#N)cnc32)ncc1-n1cc([C@H]2CC[C@](O)(CCN3CCN(c4ccc([C@@]5(C)CCC(=O)NC5=O)cn4)CC3)CC2)nn1 (single isomer, unassigned) [P-293]", "%", 10.5],
  ["C[C@H](C#N)Nc1cc(-n2ncc3cc(C#N)cnc32)ncc1-n1cc([C@H]2CC[C@](O)(CCN3CCN(c4ccc([C@@]5(C)CCC(=O)NC5=O)nc4)CC3)CC2)nn1 (single isomer, unassigned) [P-294]", "%", 76.0],
  ["C[C@H](C#N)Nc1cc(-n2ncc3cc(C#N)cnc32)ncc1C(=O)N[C@H]1CC[C@H](CCN2CCC(F)(c3ccc([C@@]4(C)CCC(=O)NC4=O)cc3)CC2)CC1", "%", 3.5]
]}

(1) C[C@H](C#N)Nc1cc(-n2ncc3ccc(N4C[C@H]5C[C@@H]4CO5)nc32)ncc1-n1cc([C@H]2CC[C@H](CCN3CCN(c4ccc([C@@]5(C)CCC(=O)NC5=O)cc4)CC3)CC2)nn1
(2) C[C@H](C#N)Nc1cc(-n2ccc3cc(C#N)c(N)nc32)ncc1C(=O)N[C@H]1CC[C@H](CCN2CCN(c3ccc(C4CCC(=O)NC4=O)cc3)CC2)CC1 (stereo partly shown)
Identify the item whose LVL THP1 HTRF YMIN is the smaller number: 1 or 2 Selection: enter the item's label. 2
(2: 1.5%, 1: 13.4%)

Where do the numbers come from? From patent US20240109881A1.
